The values you see were collected from patent US6110888A.

I'd be grateful if you could share measured MIC for these entries.
- Tested on: Propionibacterium acnes
- assay protocol: MIC, P. acnes (Table 1)
- Format: cell-based
- condition label: Cutibacterium acnes; P. acnes strain 6919, gram+; read-out: Anti-Microbial Activity MIC, P. acnes
Respond with the bare value in µg/mL.

Exam item: I would be grateful if you could share the reported MIC for C=CCc1cc(C)c(O)cc1C(C)C .
Marked response: 62.5

Exam item: Could you do the same for C=CCc1c(C)ccc(C(C)C)c1O , please?
Marked response: 62.5

Exam item: And for CCCc1cc(C(C)C)c(O)cc1C ?
Marked response: 31.2

Exam item: Same again, this time with Cc1ccc(C(C)C)c(O)c1 [Thymol, thymol, reference compound]
Marked response: 125

Exam item: Request: C=CCc1c(C(C)C)ccc(C)c1O
Marked response: 31.2

Exam item: Likewise for C=CCc1cc(C(C)(C)C)ccc1O ?
Marked response: 15.6

Exam item: What do we get for CCCc1cc(C(C)(C)C)ccc1O ?
Marked response: 7.8

Exam item: Entry C=CCc1cc(C(C)C)c(O)cc1C please
Marked response: 31.2

Exam item: Try this molecule too: CCCc1c(C)ccc(C(C)C)c1O
Marked response: 31.2

Exam item: // repeat for CCCc1c(C(C)C)ccc(C)c1O and report
Marked response: 31.2
